System: T-47D breast
run-description: NCI tumour cell line growth inhibition, 48 h; in the data active = GI50 below about 0.43 µM; inactive = the rest
One label from this list, please: active, inactive

// known answers, use as guide
COc1cc(/C=N/NC(=O)c2ccc(C(F)(F)F)nc2Nc2ccc(Cl)cc2C)ccc1O: inactive
COc1ccc(C(=O)Cn2c(C(=O)c3ccccc3)nc(-c3ccc(OC)cc3)c2-c2ccc(OC)cc2)cc1: inactive
COc1ccc2c(c1)/C(=C/c1c(C)nc3sc(C)nn13)C(=O)N2: inactive

query: For this compound, state the assay outcome: `O=C(Nc1ccccc1)NS(=O)(=O)c1ccc(-n2nc3c(c2-c2cccs2)Cc2ccccc2-3)cc1`
result: inactive

query: Outcome logged for CCCNC1=C2CC(C)CC(OC)[C@@H](O)[C@H](C)/C=C(\C)C(OC(N)=O)C(OC)/C=C\C=C(/C)C(=O)NC(=CC1=O)C2=O (stereo partly drawn) in this assay:
result: inactive

query: Kindly provide the recorded test outcome for the following compound: CCCCCN(CCCCC)CC(O)c1cc(C)c2ccc3cc(C(C)C)ccc3c2c1 (stereo not drawn)
result: inactive

query: Short answer needed: outcome of this test for `O=C1/C(=C/c2cccc([N+](=O)[O-])c2)COc2ccc(O)cc21` ?
result: inactive

query: Please share the test call associated with CO[C@H](C(=O)[C@@H](O)[C@@H](C)O)[C@@H]1Cc2cc3cc(O[C@H]4C[C@@H](O[C@H]5C[C@@H](O)[C@H](O)C(C)O5)[C@H](O)C(C)O4)c(C)c(O)c3c(O)c2C(=O)[C@H]1O[C@H]1C[C@@H](O[C@H]2C[C@@H](O[C@H]3C[C@](C)(O)C(=O)C(C)O3)[C@@H](O)C(C)O2)[C@H](O)C(C)O1 (stereo partly drawn) .
result: active

---

Test system: OVCAR-3 ovarian
run-description: NCI tumour cell line growth inhibition, 48 h
measured-metric: TGI

query: Look up TGI of `O=C([O-])CC(=O)[O-].O=C([O-])CC(=O)[O-].[K+].[Pd+2]` and report it.
result: > 100 µM

query: Indicate the recorded TGI value for this molecule: `CC[C@@]1(O)C(=O)OCc2c1cc1n(c2=O)Cc2c-1nc1ccccc1c2/C=N\NC(=O)CN`
result: > 91 µM

query: Supply reported TGI belonging to this molecule: `COC1=CC(=O)c2nc(-c3ccncc3)[nH]c2C1=O`
result: > 100 µM

query: Read the entry `CC1=C(C(=O)NCc2ccccc2)C(/C=C/c2ccccc2)C(C(=O)NCc2ccccc2)=C(C)N1` and write its reported TGI.
result: > 100 µM

---

Tested on: MCF7 breast
run-description: NCI tumour cell line growth inhibition, 48 h
measured-metric: TGI

COc1c(C)c(C/C=C(\C)CCCCO[Si](c2ccccc2)(c2ccccc2)C(C)(C)C)c(OC)c(OC)c1OC: > 46.4 µM
O=C1/C(=C/c2ccc(O)cc2)CC/C1=C\c1ccc(O)cc1: > 100 µM
COc1cc(/C=C/C(=N\NS(=O)(=O)c2ccc(C)cc2)c2sc(NNC(C)=O)nc2C)ccc1O: > 100 µM
O=C(NNC(=O)c1ccccc1SSc1ccccc1C(=O)NNC(=O)c1ccccc1S)c1ccccc1S: > 100 µM
Cc1cn(C2CC(N(O)C(N)=O)C(CO)O2)c(=O)[nH]c1=O (configuration not stated): > 100 µM
CCOC(=O)c1c2ccccc2n2c(N)c(C(N)=O)nnc12: > 100 µM

Consider the additional molecule presented here.
query: Return TGI (reported value) for this molecule: COc1ccc(/C=C2\CCC(C)C3=C2NC(=S)NC3c2ccc(OC)c(OC)c2)cc1OC (configuration not stated)
result: > 31.6 µM

---

TGI values, listed per item
Tested on: CCRF-CEM leukemia
run-description: NCI tumour cell line growth inhibition, 48 h
Supply the numeric figure in µM, leaving out any unit text.

Study these solved cases before continuing.
O=C1/C(=C/c2ccc(O)cc2)CC/C1=C\c1ccc(O)cc1: 6.74
CC(C)C/C(CC(=O)CCC(=O)Nc1ccccc1[N+](=O)[O-])=N\NC(=O)c1cc2ccccc2cc1O: 59.6
O=C(CC1(O)C(=O)Nc2c(Cl)cc(Cl)cc21)c1ccc(Br)cc1Br (stereo not drawn): 3.21
COc1cc(/C=C2\S/C(=N/Nc3nc(-c4ccc(Br)cc4)cs3)NC2=O)cc(OC)c1OC: 10.3
C(/c1ccco1)=c1/nc(-c2ccccc2)n2c1nc1ccccc12: 46.8

query: Quote TGI reported for O=C(/C=C/c1ccccc1)NC1C=Nc2ccc(Cl)cc2NC1=O (stereo not drawn) please.
result: 33.5

query: Note down TGI recorded for `Cn1cnc([N+](=O)[O-])c1Sc1nnc(-c2cccnc2)n1C`
result: 45

query: Find the measured TGI of `Oc1cccc2c(Cl)ccnc12` and report it.
result: 2.52

query: Give the value of TGI reported for the following: `COc1cc(CNc2cnc3cc(N)cc(N)c3n2)cc(OC)c1`
result: 52.3

query: Note down TGI recorded for `COC(=O)c1cc2c(n1S(=O)(=O)c1ccc(C)cc1)C(=O)C(=O)c1[nH]cc(C(=O)OCc3ccccc3)c1-2`
result: 1.05

---

Tested on: CAKI-1 renal
run-description: NCI tumour cell line growth inhibition, 48 h
Each entry below carries its recorded TGI.

O=C(NNC(=O)c1ccccc1SSc1ccccc1C(=O)NNC(=O)c1ccccc1S)c1ccccc1S: > 100 µM
COC(=O)CC1CCN(C#N)CC1CC[N+](=O)[O-] (stereo unspecified): > 100 µM
COC1=CC(=O)c2nc(-c3ccncc3)[nH]c2C1=O: > 100 µM
O=C([O-])CC(=O)[O-].O=C([O-])CC(=O)[O-].[K+].[Pd+2]: > 100 µM
COc1nc(N)c(C(=O)CCl)c(=O)n1C: 23.4 µM

query: Return reported TGI. Input molecule: COc1cc([C@@H]2OCC3C(c4ccc5c(c4)OCO5)OCC32)cc(OC)c1OC (stereo partly specified)
result: > 100 µM

---

Tested on: HCC-2998 colon
run-description: NCI tumour cell line growth inhibition, 48 h
Some compounds, each annotated with its measured TGI.

O=C([O-])CC(=O)[O-].O=C([O-])CC(=O)[O-].[K+].[Pd+2]: > 100 µM
O=C(O)CCc1coc2ccc(O)cc12: > 100 µM
Cc1nc(C(N)=S)sc1/C(CC(=O)C(=O)Nc1cccc2ccc(O)cc12)=N\NC(=O)c1ccncc1: > 100 µM

query: Check HCC-2998 colon data and give TGI for CO[C@H](C(=O)[C@@H](O)[C@@H](C)O)[C@@H]1Cc2cc3cc(O[C@H]4C[C@@H](O[C@H]5C[C@@H](O)[C@H](O)C(C)O5)[C@H](O)C(C)O4)c(C)c(O)c3c(O)c2C(=O)[C@H]1O[C@H]1C[C@@H](O[C@H]2C[C@@H](O[C@H]3C[C@](C)(O)C(=O)C(C)O3)[C@@H](O)C(C)O2)[C@H](O)C(C)O1 (some centres undefined) .
result: 1.72 µM

query: Provide TGI, tested on HCC-2998 colon, for `Cn1cnc([N+](=O)[O-])c1Sc1nnc(-c2cccnc2)n1C` .
result: 67.1 µM

query: Specify the recorded TGI for Cc1coc2c1CC1(C)C(CCC(O)C1C)C2 (centres undefined) , system: HCC-2998 colon.
result: > 100 µM

query: Fetch value of TGI on HCC-2998 colon for `COc1cc([C@@H]2c3cc4c(cc3[C@@H](Nc3ccc([N+](=O)[O-])cc3C(=O)c3ccccc3)[C@H]3COC(=O)[C@H]23)OCO4)cc(OC)c1OC` .
result: > 100 µM

query: Fill in: TGI on HCC-2998 colon, entry C=C(Br)C(C)(Cl)CCC(Br)C(C)(C)Cl (centres undefined)
result: > 100 µM

query: Report TGI from HCC-2998 colon testing of `CCC[C@@H](O)C[C@@H]1CCC[C@H](C[C@@H](O)CC)N1C`
result: > 100 µM

query: Identify measured TGI obtained with HCC-2998 colon for `CCc1ccc(CCN2CCCCC2)nc1` .
result: > 100 µM

query: Enter TGI (test system HCC-2998 colon) for `COc1cc(/C=C/C(=N\NS(=O)(=O)c2ccc(C)cc2)c2sc(NNC(C)=O)nc2C)ccc1O`
result: > 100 µM

query: Enter recorded TGI with HCC-2998 colon for `O=C(O)CSc1ccc([N+](=O)[O-])cc1[N+](=O)[O-]` here.
result: > 100 µM

query: Would you please give the reported TGI of O=C(CC1(O)C(=O)Nc2c(Cl)cc(Cl)cc21)c1ccc(Br)cc1Br (centres undefined) with HCC-2998 colon?
result: 30.6 µM

query: Quote TGI with test system HCC-2998 colon for `CCOc1cc2c(cc1O)/C(=N\OC)C[C@@H]1[C@@H]2CC[C@]2(C)[C@@H](O)CC[C@@H]12`
result: 14.4 µM

query: Check HCC-2998 colon data and give TGI for CCC(CO)Nc1nc2ccc(Cl)cc2c2ccccc12 (centres undefined) .
result: 10.6 µM

query: Enter measured TGI, system HCC-2998 colon, for the compound shown: `O=[N+]([O-])/C(C(Cl)=C(Cl)Cl)=C(\SCc1ccccc1)N1CCCCC1`
result: 45.7 µM

query: Print HCC-2998 colon TGI for `O=C(N/C(=C\c1ccc(/C=C(\NC(=O)c2ccccc2)c2nc3cc([N+](=O)[O-])ccc3[nH]2)cc1)c1nc2cc([N+](=O)[O-])ccc2[nH]1)c1ccccc1` .
result: 77.2 µM

query: Supply TGI measured with HCC-2998 colon for `Cc1ccc(N=Nc2ccc(N(CCC#N)CCC#N)cc2C)c(Br)c1` .
result: 59.4 µM

query: Determine reported TGI for `CCOC(=O)CN1C(=O)c2cccc3cc([N+](=O)[O-])cc(c23)C1=O` ; test system: HCC-2998 colon.
result: 14.8 µM

query: Tell me its TGI on HCC-2998 colon: `FC(F)(F)c1cc(Cl)cnc1N/N=C(/c1ccccc1)c1ccccn1`
result: > 100 µM

query: Please report TGI with HCC-2998 colon for item CN1C(=O)C(C)(C)C2(SC(C)(C)C2(C)C)N(C)C1=S (centres undefined) .
result: > 100 µM
